STUDY TARGET: PD-1/PD-L1 (Homo sapiens, UniProt Q9NZQ7)
Construct: TVMV protease site linker (C)
Sequence (Q9NZQ7 18-239): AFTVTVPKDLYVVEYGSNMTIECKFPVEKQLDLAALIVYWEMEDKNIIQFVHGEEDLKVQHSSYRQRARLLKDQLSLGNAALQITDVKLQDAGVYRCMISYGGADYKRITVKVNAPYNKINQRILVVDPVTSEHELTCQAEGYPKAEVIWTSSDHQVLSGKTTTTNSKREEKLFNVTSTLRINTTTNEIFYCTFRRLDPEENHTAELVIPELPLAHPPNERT
ASSAY REMARKS: PD-1/PD-L1 Homogenous Time-Resolved Fluorescence (HTRF) binding assay
SETUP CONDITIONS: PD-L1-His 10 nM, PD-1-Ig 20 nM
Threshold-based label: IC50 under 3 nM gives True, IC50 not under 3 nM gives False.

Qu. Consider Cc1c(COc2cc(OCc3cncc(C#N)c3)c(CN(C)Cc3nc4ccccc4[nH]3)cc2Cl)cccc1-c1cccc(OCCCN2CC[C@@H](O)C2)c1C . Does its IC50 lie strictly below 3 nM?
Ans. False

Qu. Next record, please: Cc1c(COc2cc(OCc3cncc(C#N)c3)c(CN3CCC4C(C3)C(CO)=NN4C)cc2Cl)cccc1-c1cccc(OCC2CCCN(C)C2)c1Cl (stereo not drawn)
Ans. True

Qu. Next record, please: Cc1c(COc2cc(OCc3cncc(C#N)c3)c(CN3CCCCC3c3ncc[nH]3)cc2Cl)cccc1-c1cccc(OCCCN2CC[C@@H](O)C2)c1C (stereo partly drawn)
Ans. True

Qu. Next record, please: Cc1c(COc2cc(OCc3ncn(C(c4ccccc4)(c4ccccc4)c4ccccc4)c3C)c(CNCc3ccnc(C#N)n3)cc2Cl)cccc1-c1cccc(OCCCN2CC[C@@H](O)C2)c1C
Ans. False

Qu. Next record, please: Cc1c(COc2cc(OCc3cncc(C#N)c3)c(CNCc3ncccn3)cc2Cl)cccc1-c1cccc(OCc2cncnc2)c1Cl
Ans. False

Qu. Next record, please: Cc1c(COc2cc(OCc3cncc(C#N)c3)c(CNCc3cncs3)cc2Cl)cccc1-c1cccc(OCCCN2CC[C@@H](O)C2)c1C
Ans. False

The reported measurements were obtained from patent US20240124417A1.
